- study-target: Human EphA2 (ephrin receptor A2) on cells (human, UniProt P29317 25-976)
- Sequence (P29317 25-976): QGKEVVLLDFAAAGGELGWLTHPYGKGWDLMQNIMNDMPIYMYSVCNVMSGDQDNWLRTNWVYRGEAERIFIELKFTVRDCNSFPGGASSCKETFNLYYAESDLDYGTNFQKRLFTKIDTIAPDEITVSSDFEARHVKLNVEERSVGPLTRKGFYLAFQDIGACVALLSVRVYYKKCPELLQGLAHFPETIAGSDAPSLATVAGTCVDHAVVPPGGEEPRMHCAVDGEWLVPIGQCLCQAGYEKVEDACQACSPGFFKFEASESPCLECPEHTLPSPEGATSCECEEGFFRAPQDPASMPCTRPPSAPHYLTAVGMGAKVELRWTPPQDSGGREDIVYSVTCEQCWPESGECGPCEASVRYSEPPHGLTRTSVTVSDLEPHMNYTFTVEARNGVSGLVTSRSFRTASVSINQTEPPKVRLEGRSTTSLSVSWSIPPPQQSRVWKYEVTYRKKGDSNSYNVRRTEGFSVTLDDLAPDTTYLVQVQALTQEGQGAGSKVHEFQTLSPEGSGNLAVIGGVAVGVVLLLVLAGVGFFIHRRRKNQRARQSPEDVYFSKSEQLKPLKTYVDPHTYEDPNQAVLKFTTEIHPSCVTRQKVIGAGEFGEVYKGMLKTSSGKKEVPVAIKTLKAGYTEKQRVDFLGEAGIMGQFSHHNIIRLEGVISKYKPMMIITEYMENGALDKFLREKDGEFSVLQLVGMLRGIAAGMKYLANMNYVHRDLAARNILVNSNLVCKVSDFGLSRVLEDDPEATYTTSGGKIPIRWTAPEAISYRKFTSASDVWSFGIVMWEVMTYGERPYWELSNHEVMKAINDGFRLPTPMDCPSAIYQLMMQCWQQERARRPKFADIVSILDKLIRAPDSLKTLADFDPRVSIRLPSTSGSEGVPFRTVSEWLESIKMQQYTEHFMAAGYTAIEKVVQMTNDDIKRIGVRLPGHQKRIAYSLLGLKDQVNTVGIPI
- measurement-notes: cell-based or functional assay

binder	ADCC Delta activity (%), A549
AB-009808 (antibody, mouse IgG2a, V domains shown) VH: QVQLQQWGAGLLKPSETLSLTCAVYGGSFSDYYWSWIRQPPGKGLEWIGEINHSGSTNYNPSLKSRVTISVDPSKNQFSLKLTSVTAADTAVYYCAKPFRPHCTNGVCYSGDAFDIWGQGTMVTVSS VL: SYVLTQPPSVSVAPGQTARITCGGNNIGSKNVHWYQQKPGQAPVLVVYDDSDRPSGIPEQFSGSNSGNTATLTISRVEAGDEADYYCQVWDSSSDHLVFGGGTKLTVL	1.31
